# credit: PubChem BioAssay (NCI)

Test system: COLO 205 colon
procedureText: NCI tumour cell line growth inhibition, 48 h
endpoint: TGI

Given the entry O=C1C=C(NCCc2ccc(O)cc2)C(=O)C=C1NCCc1ccc(O)cc1 , what TGI was observed with COLO 205 colon?
> 100 µM

Given the entry [B]C(=O)NC(CC(C)C)C(=O)NC1c2ccsc2C(=O)C1O (centres undefined) (tested in a mixture with another compound) , what TGI was observed with COLO 205 colon?
> 100 µM

Given the entry O=C1N(c2ccccc2)N=C2c3ccncc3C3=NN(c4ccccc4)C(=O)C123 (centres undefined) , what TGI was observed with COLO 205 colon?
6.12 µM

Given the entry COc1ccc(-c2cc(-c3ccncc3)nc(N)c2-c2ccc(F)cc2)cc1 , what TGI was observed with COLO 205 colon?
97.3 µM

Given the entry O=[N+]([O-])C(=C(\Cl)NCCO)/C(Cl)=C(/Cl)Br , what TGI was observed with COLO 205 colon?
2.74 µM

Given the entry CCOC(=O)C1=CN(Cc2ccccc2)C2ON=C(c3ccc(Cl)cc3)C2C1 (centres undefined) , what TGI was observed with COLO 205 colon?
> 64.1 µM

Given the entry CC(=O)Nc1ccc2cc3c(nc2n1)c1cccnc1n3S(=O)(=O)c1ccccc1 , what TGI was observed with COLO 205 colon?
> 100 µM

Given the entry COc1ccc(-c2nc3ccccc3c(=O)[nH]2)cc1OC , what TGI was observed with COLO 205 colon?
> 100 µM

Given the entry COc1ccc(/C=C\c2cc(OC)c(OC(C)=O)c(OC)c2)cc1 , what TGI was observed with COLO 205 colon?
> 100 µM

Given the entry COC(=O)c1cc(OCc2cc(OCc3ccc(Br)cc3)cc(OCc3ccc(Br)cc3)c2)cc(OCc2cc(OCc3ccc(Br)cc3)cc(OCc3ccc(Br)cc3)c2)c1 , what TGI was observed with COLO 205 colon?
> 100 µM

Given the entry COC(=O)/C=C/[C@H]1[C@H](C)N1S(=O)(=O)c1ccc(C)cc1 (some centres undefined) , what TGI was observed with COLO 205 colon?
> 100 µM

Given the entry O=C(O)Cc1ccc(-n2nnc3c(=O)[nH][nH]c(=O)c32)cc1 , what TGI was observed with COLO 205 colon?
> 100 µM

Given the entry CCOC(=O)CCNC(=O)c1cc(C)cc2c1Oc1c(cc(C)cc1C(=O)NCCC(=O)OCC)S2 , what TGI was observed with COLO 205 colon?
> 100 µM

Given the entry Nc1c(C(=O)Nc2cccc3ccccc23)sc2nc3c(cc12)CCCCCC3 , what TGI was observed with COLO 205 colon?
4.8 µM

Given the entry O=c1c(Br)ccc(Br)cc1Br , what TGI was observed with COLO 205 colon?
0.442 µM

Given the entry OC1/C(=C/c2ccccc2)CNC/C1=C\c1ccccc1 (centres undefined) , what TGI was observed with COLO 205 colon?
> 100 µM

Given the entry Clc1ccc2c(NCCCNCc3ccc4c(c3)OCO4)ccnc2c1 , what TGI was observed with COLO 205 colon?
3.48 µM

Given the entry COc1ccc(/C=C2\NC(=S)N(CN3CCOCC3)C2=O)cc1 , what TGI was observed with COLO 205 colon?
> 100 µM

Given the entry CCOC(=O)C(/C=N/C(N)=S)=C(/O)c1ccccc1 , what TGI was observed with COLO 205 colon?
> 100 µM

Given the entry c1ccc(Oc2cnc3ccccc3n2)cc1 , what TGI was observed with COLO 205 colon?
> 100 µM

Given the entry CC1=NN(c2cccc(S(=O)(=O)O)c2)C2(C1)SCC(=O)N2c1nc2ccccc2s1 (centres undefined) , what TGI was observed with COLO 205 colon?
> 100 µM

Given the entry O=CC1C(=O)Nc2nc3ccccc3n2C1c1ccccc1 (centres undefined) , what TGI was observed with COLO 205 colon?
26.2 µM

Given the entry O=C(O)COc1cccc2ccccc(=O)c12 , what TGI was observed with COLO 205 colon?
> 100 µM

Given the entry CC12CCC(C)(c3cc(O)c(O)cc31)c1cc(O)c(O)cc12 , what TGI was observed with COLO 205 colon?
30 µM

Given the entry Cc1csc(CP(=O)(OC(C)C)OC(C)C)n1 , what TGI was observed with COLO 205 colon?
> 100 µM

Given the entry COc1ccc(C(CC(=O)c2ccc(O)cc2)C(C(=O)c2ccc(O)cc2)C(c2ccc(OC)cc2)C2C(=O)NC(=S)NC2=O)cc1 (centres undefined) , what TGI was observed with COLO 205 colon?
45.1 µM

Given the entry FC(F)(F)c1ccc(N=NN2CCCC2)cc1 , what TGI was observed with COLO 205 colon?
> 100 µM

Given the entry CN1CCN(C(=S)N(C(=O)c2ccc(Cl)cc2)C2CCCCC2)CC1 , what TGI was observed with COLO 205 colon?
> 100 µM

Given the entry Cc1cc2c(C=O)[nH]nc2c(C#N)c1C , what TGI was observed with COLO 205 colon?
> 100 µM

Given the entry NCCCCNCCCNC(=O)c1csc(-c2nc(CCN)sc2Cl)n1 , what TGI was observed with COLO 205 colon?
> 100 µM

Given the entry CC1(C)C/C=C\CCC(O)C(O)CCC(C)(C)C1=O (centres undefined) , what TGI was observed with COLO 205 colon?
> 100 µM

Given the entry Nc1ncnc2c1c(-c1ccc(Oc3ccccc3)cc1)nn2C[C@H]1SSC[C@H]1O , what TGI was observed with COLO 205 colon?
1.8 µM

Given the entry COc1ccc2c(c1)[n+](=O)c(C(=O)C/C(=N\NC(=O)C[N+](C)(C)C)C(=O)Nc1cc(Cl)ccc1Cl)c(C)n2O , what TGI was observed with COLO 205 colon?
> 100 µM

Given the entry c1ccc2c(c1)-c1nc3ccccc3cc1C2N1CCOCC1 (centres undefined) , what TGI was observed with COLO 205 colon?
> 100 µM

Given the entry CC(C)N=C(NC#N)NS(=O)(=O)c1cnccc1NC1CCCCCCC1 , what TGI was observed with COLO 205 colon?
> 100 µM

Given the entry COC(=O)C1=C(C(=O)OC)C2CCC1CC2=O (centres undefined) , what TGI was observed with COLO 205 colon?
> 100 µM

Given the entry O=P1(NCCCl)OCCC(OO)N1CCCl (centres undefined) , what TGI was observed with COLO 205 colon?
> 57.3 µM

Given the entry CNC(=S)c1nnsc1N , what TGI was observed with COLO 205 colon?
> 100 µM

Given the entry CCOc1ccnc2c(OC)c(C)c3nc4ccccc4nc3c12 , what TGI was observed with COLO 205 colon?
> 100 µM

Given the entry COc1cc(-c2cc(C(=O)N3CCN(C(=O)c4ccccc4NCc4cccs4)CC3)nc3cc(-c4ccccc4)nn23)cc(OC)c1OC , what TGI was observed with COLO 205 colon?
26.5 µM

Given the entry CC(=O)Oc1ccc(C2SCc3nc4ccccc4n32)cc1 (centres undefined) , what TGI was observed with COLO 205 colon?
56.3 µM

Given the entry CN=C(NC#N)NCc1ccccc1 , what TGI was observed with COLO 205 colon?
> 100 µM

Given the entry COc1ccc(/C=C2\CCC(CN(C)C)C2=O)cc1 (centres undefined) , what TGI was observed with COLO 205 colon?
10.4 µM

Given the entry COc1ccc2c(c1)cn1c3ccc(OC)cc3[nH]c(=O)c21 , what TGI was observed with COLO 205 colon?
0.0294 µM
